Answer each item with its documented pKi.
target.under.test: Carboxypeptidase A (Bos taurus, UniProt P00730)
Sequence (P00730 111-419): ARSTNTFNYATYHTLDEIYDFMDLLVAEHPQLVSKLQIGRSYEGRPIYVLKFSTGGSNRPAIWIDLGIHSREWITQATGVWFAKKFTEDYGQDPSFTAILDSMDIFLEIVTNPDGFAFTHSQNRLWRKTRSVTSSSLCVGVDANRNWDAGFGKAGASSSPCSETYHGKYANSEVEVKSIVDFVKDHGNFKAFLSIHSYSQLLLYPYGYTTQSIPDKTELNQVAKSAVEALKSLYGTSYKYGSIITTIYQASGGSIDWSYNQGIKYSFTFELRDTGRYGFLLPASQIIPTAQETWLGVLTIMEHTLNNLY
procedure.summary: Carboxypeptidase A activity assay
Assay type: biochemical
cond: Ki class; compounds tested in 5% DMSO, 12 compound concentrations
pKi: −log10 of the molar value.

get_value(item= CC(C)CC(N[C@@H](Cc1cncn1Cc1ccc(Cl)c(Cl)c1)C(=O)O)C(=O)O (single isomer, unassigned) , readout=pKi) returns 4.30 to 5.00

// field: pKi; key: Cc1ccc(Cn2cncc2C[C@H](NC(CC(C)C)C(=O)O)C(=O)O)cc1 (single isomer, unassigned) ; value = 4.30 to 5.00

Recorded result, Cc1ccc(Cn2cncc2C[C@H](NC(CC(C)C)C(=O)O)C(=O)O)cc1C (single isomer, unassigned) , pKi: 4.30 to 5.00

* * *

target.under.test: UniProt:P00730
Sequence (P00730 111-419): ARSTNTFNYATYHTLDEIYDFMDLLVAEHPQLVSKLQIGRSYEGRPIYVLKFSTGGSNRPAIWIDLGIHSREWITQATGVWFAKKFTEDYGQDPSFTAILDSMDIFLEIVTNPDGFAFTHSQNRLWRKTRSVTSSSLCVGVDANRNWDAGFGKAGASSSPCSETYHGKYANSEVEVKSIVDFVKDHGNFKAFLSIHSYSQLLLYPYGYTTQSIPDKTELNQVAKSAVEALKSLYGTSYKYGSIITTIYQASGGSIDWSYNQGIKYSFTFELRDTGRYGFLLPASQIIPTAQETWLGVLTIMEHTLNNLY
procedure.summary: Carboxypeptidase A activity assay
Type: biochemical
cond: Ki class; compounds tested in 5% DMSO, 12 concentrations
result.type: Ki

Bench note, UniProt:P00730: entry COC(=O)[C@H](Cc1c[nH]cn1)NC(CC(C)C)C(=O)O (single isomer, unassigned) [CU] , its Ki = > 50 µM

// returns Ki for CCC(C)C(NC(Cc1cncn1Cc1ccccc1)C(=O)O)C(=O)O (single isomer, unassigned) [GD] with UniProt:P00730; value = > 50 µM

Test item CCCC[C@H](N[C@@H](C(=O)O)c1ccccc1)C(=O)O ; UniProt:P00730; reported Ki was > 50 µM

Value (Ki, UniProt:P00730) for record CC(C)CC(N[C@@H](Cc1nc[nH]n1)C(=O)O)C(=O)O (stereo partly drawn) = > 50 µM

Entry O=C(O)[C@H](CC1CCCCC1)N[C@@H](C(=O)O)c1ccccc1 ; assay system UniProt:P00730; Ki recorded at > 50 µM

Response field Ki (UniProt:P00730) for item CC(N[C@@H](Cc1c[nH]cn1)C(=O)O)C(=O)O (stereo partly drawn) : > 50 µM

The compound CCCCC(N[C@@H](CC(C)C)C(=O)O)C(=O)O (stereo partly drawn) , when measured on UniProt:P00730, yielded Ki of > 50 µM

Value (Ki, UniProt:P00730) for record CC(C)CC(N[C@@H](Cc1cncn1Cc1ccc(C(=O)O)cc1)C(=O)O)C(=O)O (single isomer, unassigned) [GO] = > 50 µM

Value (Ki, UniProt:P00730) for record CC(C)C[C@H](NCc1ccc(C(=O)O)cc1)C(=O)O = > 50 µM
